# System: 496974-208-R-J2-PDC complex spheroids, growth % test/control;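 further: spheroids exposed to the drugs for 7 days before readout; 100% = DMSO vehicle control wells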
# ASSAY_INFO: Anticancer human tumor 496974-208-R-J2-PDC patient-derived pancreatic carcinoma cell line growth inhibition [CLK]; active means viability on the fitted dose curve at most 10% of control; inactive means the rest
# CONDITION_LABEL: second compound 3.16 µM; first compound 1 µM
Possible outcomes: 1.0 (active), 0.0 (inactive)

1) COC1C=CCC(C)C(C)S(=O)(=O)NC(=O)c2ccc3c(c2)N(CC2CCC21)CC1(CCCc2cc(Cl)ccc21)CO3 (stereo not given) + CNC(=O)c1ccc(Nc2nc(OC3CCCC3)c3c(-c4ccc5nc(C)oc5c4)c[nH]c3n2)c(OC)c1: 0.0
2) Nc1ccn(C2OC(CO)C(O)C2(F)F)c(=O)n1 (stereo not given) + CN1CCN(c2cc(C(=O)Nc3cc4cc(-c5cnn(C)c5)ccc4cn3)ccn2)CC1: 1.0
3) CC1(C)CCC(CN2CCN(c3ccc(C(=O)NS(=O)(=O)c4ccc(NCC5CCOCC5)c([N+](=O)[O-])c4)c(Oc4cnc5[nH]ccc5c4)c3)CC2)=C(c2ccc(Cl)cc2)C1 + CNC(=O)c1ccc(Nc2nc(OC3CCCC3)c3c(-c4ccc5nc(C)oc5c4)c[nH]c3n2)c(OC)c1: 0.0
4) C#Cc1c(F)ccc2cc(O)cc(-c3ncc4c(N5CC6CCC(C5)N6)nc(OCC56CCCN5CC(F)C6)nc4c3F)c12 (stereo not given) + CN1CCN(c2cc(C(=O)Nc3cc4cc(-c5cnn(C)c5)ccc4cn3)ccn2)CC1: 1.0
5) CCCS(=O)(=O)Nc1ccc(F)c(C(=O)c2c[nH]c3ncc(-c4ccc(Cl)cc4)cc23)c1F + CN1CCN(c2cc(C(=O)Nc3cc4cc(-c5cnn(C)c5)ccc4cn3)ccn2)CC1: 1.0
